For each of the compounds below, state its max response.
procedure-summary: Cycloheximide Counterscreen for Small Molecule Inhibitors of Shiga Toxin; further: read at 38.3 µM for the half of the compounds with a filed dose; 0% is about no effect
test-parameters: cell reporter, cycloheximide protein synthesis inhibition counterscreen; stronger effect = higher value
Out of some 300,000 compounds screened, about 37,000 (12%) were called active. Many of the other results were omitted from the sample, so actives are more common in it than they were.
Express it in %; write the number only.

// returns reported max response for input Clc1ccccc1-c1cc(COc2ccc3ccccc3c2)no1
6.98

What measured max response goes with COc1ccc(CCNC(=O)c2ccccc2-c2ccccc2C(=O)O)cc1OC ?
-3.5

Record request: max response value, item CCNC(=O)CCc1nc(-c2ccc(C(C)(C)C)cc2)no1
34.3

Please give the measured max response for this compound: N=c1oc2ccccc2cc1C(=O)NCc1ccccc1
41.3

Give the measured max response of CNC(=O)c1cccc2nc3ccccc3nc12 .
1.67

I have this compound here, CN1CCN(C(=O)CCc2nc(-c3ccc(Cl)cc3)no2)CC1 , and I need its recorded max response.
7.26

Fill in the blank: the reported max response of CNC(=O)c1cc2c(ccc3ccccc32)oc1=N is ____.
18.4

Given the compound Cc1ccc(-c2noc(CNC(=O)c3ccoc3C)n2)cc1 , what is its reported max response?
11

Name the recorded max response for O=C(Nc1cccnc1Cl)c1cc(-c2ccccc2O)on1 .
17

Query (compound): CCCCNC(=O)CCNC(=O)c1ccc(C(C)(C)C)cc1 ; field requested: max response
5.17

Which measured max response value corresponds to CCn1cc(/C=C(\NC(=O)c2cc(OC)c(OC)c(OC)c2)C(=O)N2CCN(C)CC2)c2ccccc21 ?
-3.51

Using the record for C=CCNC(=O)c1cc(-c2ccccc2O)on1 , report its max response.
59.8

I am curious: what max response value has been reported for CCN(CC)c1ccc([N+](=O)[O-])c2cccnc12 ?
0.792

Quick check: max response of O=C(COC(=O)/C=C/c1ccc2c(c1)OCO2)NC1CCS(=O)(=O)C1 (stereo not given) ?
2.81

Requested field: max response. Item: Cc1nonc1C1CCCN1Cc1nc(-c2ccc(F)cc2F)oc1C (stereo not given)
6.22

Give its max response value. Item: Cc1ccccc1Nc1c([N+](=O)[O-])ccc2nonc12
0.319

Please look up its max response: COc1cccc2cc(C(=O)NCc3ccc(C)cc3)c(=N)oc12
3.84

Would you kindly share the measured max response for CC(NC(=O)c1cc2cc(Cl)ccc2oc1=N)c1ccccc1 (stereo not given) ?
-1.94

What max response value was documented for this compound, COc1cccc2[nH]c(C(=O)NCCc3ccccc3)cc12 ?
42.7

// returns reported max response for input O=C(O)c1ccc(/C=C2/SC(=S)N(c3cccc(C(F)(F)F)c3)C2=O)cc1
-7.16

----------
procedure-summary: Cycloheximide Counterscreen for Small Molecule Inhibitors of Shiga Toxin; further: read at 38.3 µM for the half of the compounds with a filed dose; 0% is about no effect
test-parameters: cell reporter, cycloheximide protein synthesis inhibition counterscreen; stronger effect = higher value
The whole screen tested about 300,000 compounds, of which about 37,000 (12%) were called active. This excerpt belongs to a sample that is enriched for actives.
I'd appreciate it if you could supply max response values for the items below.
Report the figure in % without appending any unit label.

Would you kindly share the measured max response for O=S(=O)(Nc1ccc(Oc2ncccn2)c(Cl)c1)c1ccc(F)cc1 ?
5.26

Name the recorded max response for COc1ccc(CNC(=O)c2ccc(Br)s2)cc1OC .
10.2

Quick one: max response for O=C(NNC(=S)Nc1ccc(Br)cc1Cl)c1ccco1 ?
43.8
